# Test system: Plasmodium falciparum
# ASSAY OVERVIEW: Screen against P. falciparum Asexual Blood Stage (ABS), at 5uM
# Type: functional, Dd2
# ASSAY SETUP: tested at 5 uM
About 2,100 (3.2%) of roughly 65,000 compounds showed an effect of 50% or more. The median lay at about -52%. The sample as a whole holds a higher share of strong results than the screen did.
Group membership follows INHIBITION per the scheme Low = under -40%, Medium = from -40% up to 10%, High = 10% and over

COMPOUND | LABEL CLASS
NCc1ccc(OC(F)F)cc1OC(F)F | Medium
N#Cc1ccc(C(=O)N2CCC(c3ncc[nH]3)CC2)cn1 | Low
CC1c2ccsc2CCN1Cc1cc2c(cc1O)OCO2 (centres undefined) | High
Cc1ccc(NC(=O)Cn2ncc(SCC(N)=O)c(Cl)c2=O)c(F)c1 | Low
CC(C)CCN1CCCC12Cc1ccccc1CNC2=O (centres undefined) | High
CC(=O)N1CCN(C(=O)CN2CCCC2c2c(C)nn(C)c2C)CC1 (centres undefined) | Low
CC1CCN(CC2(O)CCCN(Cc3cccc(F)c3F)C2=O)CC1 (centres undefined) | Low
COc1ccc(F)c(CN2CCCC(O)(CNCc3ccon3)C2=O)c1 (centres undefined) | Medium
Cn1cc(NS(=O)(=O)c2ccc3c(c2)CCCC3)ccc1=O | Low
Cc1cnn(CCNCC(O)COc2ccc(F)cc2)c1 (centres undefined) | High
CN(Cc1nnc(C2CC2)n1C)S(=O)(=O)c1ccccc1C#N | Low
O=C(CNCC1(O)CCCN(Cc2cccc(F)c2F)C1=O)NC1CC1 (centres undefined) | Low
Cc1cc(N2CCC(c3ncc[nH]3)CC2)nc(N)n1 | Medium
O=C(c1cccc(F)c1Cl)N(CCO)CC1CC1 | Medium
COc1ccc(CNc2c(N3CCN(C(C)=O)CC3)c(=O)c2=O)cc1 | Medium
O=C(c1ccc2[nH]ccc2c1)N1CCn2cc(CN3CCCC3)nc2C1 | Medium
COc1ccccc1S(=O)(=O)N1CC(N(C)C)Cc2ccccc21 (centres undefined) | High
Cc1cc(N2CCC(c3ncc[nH]3)CC2)c2ccccc2n1 | High
CCn1cc(CNc2ccc3nccnc3c2)cn1 | Medium
COc1ccc(CN2CCc3sccc3C2C)cc1CN1CCOCC1 (centres undefined) | High
Cc1ccnc(NC(=O)CCc2cnn(C)c2C)c1 | Medium
Nc1ncc(-c2ccc(C(F)(F)F)cc2)c(C2CCCNC2)n1 (centres undefined) | High
COc1ccsc1C(=O)Nc1cc(CN2CCOCC2)ccc1C | Medium
CN(CC1(O)CCCN(Cc2cccc(F)c2F)C1=O)C1CCCCC1 (centres undefined) | High
O=C1N(Cc2cccc(F)c2F)CCCC1(O)CNC1CCCC1 (centres undefined) | High
Cc1nnc(N2C[C@H]3OCC[C@H]3[C@H](C(=O)NCC3CC3)C2)s1 | Medium
CN(C)C1Cc2ccccc2N(S(=O)(=O)c2ccc(C#N)cc2)C1 (centres undefined) | High
OCC1COCCN(Cc2cc(C3CCCCC3)no2)C1 (centres undefined) | Low
CS(=O)(=O)N1CC(c2nc(N)ncc2-c2ccc(F)cc2)C1 | Low
NC(=O)c1cccc(CN2CCc3c(ncn3C3CC3)C2)c1 | Low
CN(C)c1ncc(-c2ccc(C(N)=O)cc2)c(C2CCNC2)n1 (centres undefined) | Medium
COc1cc(F)c(S(=O)(=O)N2CCN(C)Cc3ccccc32)cc1OC | High
Cn1ccnc1CNCCNc1ncc(Cl)cc1Cl | High
CCn1ccc(-c2cc(NCCCOc3ccccc3C)nc(C)n2)n1 | Medium

====

# Test system: Plasmodium falciparum
# ASSAY OVERVIEW: Screen against P. falciparum Asexual Blood Stage (ABS), at 5uM
# Assay type: functional, Dd2
# ASSAY SETUP: tested at 5 uM
About 2,100 (3.2%) of roughly 65,000 compounds showed an effect of 50% or more. The median lay at about -52%. The list comes from a sample in which strong results are over-represented; it also holds close analogues and randomly drawn compounds.

COMPOUND | DISPLAY UNIT | INHIBITION
CC(NC1CCN(CCS(C)(=O)=O)CC1)c1cnn(C(C)C)c1 (configuration not stated) | % | -83.1
CN(C)c1ncc(I)c(C2CCCCN2C)n1 (configuration not stated) | % | 57.8
Fc1ccc(CCC2CCCN(Cc3c[nH]cn3)C2)c(F)c1 (configuration not stated) | % | 61.6
CCn1cc2c(n1)CN(Cc1cnn(C)c1)CC2COCC1CC1 (configuration not stated) | % | -28.3
Cc1ccc2nc(C3CCCN3Cc3csc(C)n3)[nH]c2c1 (configuration not stated) | % | 65.7
CCc1nc(C2CCCN2CCCc2nc3ccccc3o2)no1 (configuration not stated) | % | -157
Cc1noc([C@@H]2C[C@H]3OCC[C@H]3N(Cc3sccc3C)C2)n1 | % | -15.2
CN(C)c1ncc(I)c(C2CCCN2C)n1 (configuration not stated) | % | 20.7
CC(=O)N1CCCCC1c1nc(N)ncc1-c1ccccc1 (configuration not stated) | % | -145
c1cc(N2CCC3(COCc4cnc(NCC5CC5)nc43)C2)ncn1 (configuration not stated) | % | -14.7
Cc1noc(C)c1CN1CCC2(COCc3cnc(N(C)C)nc32)C1 (configuration not stated) | % | 26.7
COc1cccc(CN2CC[C@H]3[C@@H](C2)[C@H](c2ccsc2)CN3C(C)=O)c1 | % | 54.8
COc1ccc(-n2cccn2)cc1S(=O)(=O)N1C[C@H](C2CC2)[C@@H](N)C1 | % | 58.9
CC(NC1CCN(CCS(C)(=O)=O)CC1)c1ccc(Cl)cc1 (configuration not stated) | % | 58.2
CC(NC(=O)N1CCN(c2cccs2)CC1)c1ccncc1 (configuration not stated) | % | -28.9
Cc1[nH]c(=O)[nH]c(=O)c1CN1CCCC(CCc2ccccc2F)C1 (configuration not stated) | % | -26.5
Cc1ccc(-n2cccn2)cc1S(=O)(=O)N1C[C@H](C2CC2)[C@@H](N)C1 | % | 41.6
CN(C)CCCNC(=O)c1cc(-c2ccc3c(c2)CCO3)n[nH]1 | % | -55.4
Cc1sc2ncnc(N3CCC(N(C)Cc4cnn(C)c4)CC3)c2c1C | % | 23.5
CC(NC(=O)N1CCN(c2ncccn2)CC1)c1ccc(C#N)cc1 (configuration not stated) | % | 19.1
CC(=O)N1CCCC1c1cc(N2CCN(CC(C)(C)C)CC2)cc(C)n1 (configuration not stated) | % | -126
CN1CCN(C(=O)c2cnsn2)c2cc(F)ccc21 | % | -79.3
CC(c1ccc(Cl)cc1)N1CCN(CCS(C)(=O)=O)CC1 (configuration not stated) | % | -38.8
O=C(NCCN1CCCC1)c1cc2c(s1)CCN2c1ncccn1 | % | -36.4
CC(C)(C)C(=O)N1C[C@H](c2ccsc2)[C@H]2CN(Cc3cccs3)CC[C@H]21 | % | 29.8
Oc1cc(C2CCCCN2CC2CC2)nc(-c2ccncc2)n1 (configuration not stated) | % | -48.7
CN(C)c1ncc2c(n1)C1(CCN(Cc3ccccc3F)C1)COC2 (configuration not stated) | % | 4.25
CN1CCN(c2ccc(Br)cc2NC(=O)c2ccco2)CC1 | % | 53
COc1ccccc1CN1CC[C@H]2[C@@H](C1)[C@H](c1ccsc1)CN2C(C)=O | % | 29.5
CC(C)NC(=O)C1CN(C(=O)NCc2ccccc2)CC12CCOCC2 (configuration not stated) | % | -153
Cc1ccc2nc(C3CCCN3Cc3scnc3C)[nH]c2c1 (configuration not stated) | % | -84.1
Cc1ccccc1CN1CCC2(COCc3cnc(N(C)C)nc32)C1 (configuration not stated) | % | 54
CN(Cc1ccc2c(c1)OCCO2)Cc1nnnn1-c1ccccc1 | % | -39.1
CN(C)c1ncc(I)c(C2CCCCN2S(C)(=O)=O)n1 (configuration not stated) | % | -17.7
CN(C)CC(=O)N1CCCCC1c1nc(N)ncc1-c1ccccc1 (configuration not stated) | % | 50.9
COCC1CN(C(=O)COc2ccccc2)Cc2ncn(C)c21 (configuration not stated) | % | -14.4
c1cncc(-c2noc(CNc3ncnc4c3CCNCC4)n2)c1 | % | -88.2

====

# System: Plasmodium falciparum
# ASSAY OVERVIEW: Screen against P. falciparum Asexual Blood Stage (ABS), at 5uM
# Type: functional, Dd2
# ASSAY SETUP: tested at 5 uM
Out of some 65,000 compounds screened, about 2,100 (3.2%) showed an effect of 50% or more. The median lay at about -52%. The entries come from a sample that favours strong results as a whole.
Measured INHIBITION accompanies every entry in the list below.
READOUT NAME: INHIBITION (%)

MOLECULE | RESULT
COc1ccc(C(NCc2cccc(C#N)c2)C2CC2)cc1 (stereo not given) | 48.3
Cc1n[nH]c(C)c1-c1cc(-c2cccc(O)c2)nc(N)c1C#N | -71.8
CCN1CCCC(O)(CN(C)Cc2ccc(C)o2)C1 (stereo not given) | 20.1
CC(C)c1ncc2c(n1)CN(Cc1nnc(Cc3ccccc3)o1)CC2 | -45.2
CN(CCNC(=O)Nc1ccn(C)n1)Cc1ccc(F)cc1 | -27.6
Cc1cc(C(=O)N2CCc3ncc(CN4CCCC4)n3CC2)no1 | -1.1
c1cc(CN2CCCC2)ccc1CNc1cncc2nnnn12 | -31.2
CC(C)n1ccnc1CN1CCCN(C(=O)c2cc(Cl)c[nH]2)CC1 | 39
Cc1nn(C)c(C)c1CN(C)CC1(O)CCCN(C)C1 (stereo not given) | -56.8
Cc1cc(CNC(=O)NC(C)(CO)C2CC2)c(C)s1 (stereo not given) | -55.5

src = ChEMBL document CHEMBL4513216
